Target: CDK2/Cyclin A2 (Homo sapiens)
Assay: Inhibition of CDK2/Cyclin A (unknown origin) preincubated for 20 mins followed by ATP addition and measured after 120 mins in presence of [33P-gamma] ATP by hotspot kinase assay
pIC50: −log10 of the molar value.
ASSAY READOUT: pIC50

• CCC(=O)c1c(N2CCOCC2)c2ccc(Nc3nccc(-c4ccc(F)cc4OC)n3)cc2oc1=O = 5.96
• COc1cc(F)ccc1-c1nc(Nc2ccc3c(N4CCOCC4)c(C(C)=O)c(=O)oc3c2)ncc1F = 6.49
• COc1ccccc1-c1ccnc(Nc2ccc3c(N4CCOCC4)c(C(C)=O)c(=O)oc3c2)n1 = 5.89
• COc1cc(F)ccc1-c1nc(Nc2ccc3c(N4CCN(C)CC4)c(C(C)=O)c(=O)oc3c2)ncc1F = 6.47
• COc1ccccc1-c1ccnc(Nc2ccc3c(N4CCNCC4)cc(=O)oc3c2)n1 = 5.44
• COc1ccccc1-c1ccnc(Nc2ccc3c(N4CCCNCC4)cc(=O)oc3c2)n1 = 5.69
• CCN1CCN(c2c(C(C)=O)c(=O)oc3cc(Nc4ncc(F)c(-c5ccc(F)cc5OC)n4)ccc23)CC1 = 6.52
• COc1ccccc1-c1ccnc(Nc2ccc3c(C)c(C(C)=O)c(=O)oc3c2)n1 = 6.35
• COc1ccccc1-c1cc(Nc2ccc3c(N4CCOCC4)c(C(C)=O)c(=O)oc3c2)ncn1 = 5.47
• CCc1c(N2CCOCC2)c2ccc(Nc3nccc(-c4ccccc4OC)n3)cc2oc1=O = 4.96
• COc1cc(F)ccc1-c1ccnc(Nc2ccc3c(N4CCOCC4)cc(=O)oc3c2)n1 = 5.88
• COc1cc(F)ccc1-c1ccnc(Nc2ccc3c(N4CCOCC4)c(C(C)=O)c(=O)oc3c2)n1 = 5.88
• CC(=O)c1c(C)c2ccc(Nc3nccc(-c4cccnc4)n3)cc2oc1=O = 5.92
• CCC(=O)c1c(N2CCOCC2)c2ccc(Nc3ncc(F)c(-c4ccc(F)cc4OC)n3)cc2oc1=O = 6.47
• COc1cc(F)ccc1-c1nc(Nc2ccc3c(N4CCN(C)CC4)c(C(C)=O)c(=O)oc3c2)ncc1Cl = 6.19
• COc1cc(F)ccc1-c1nc(Nc2ccc3c(N4CCOCC4)c(C(C)=O)c(=O)oc3c2)ncc1Cl = 6.40
• COc1cc(F)ccc1-c1nc(Nc2ccc3c(N4CCCNCC4)c(C(C)=O)c(=O)oc3c2)ncc1F = 6.30
